Collected IC50 values appear next to each entry.
- System: aromatase activity in SK-BR-3 breast cancer cells
- assay_info: Aromatase tritiated water-release assay in SK-BR-3 cell lines (first compound set)
- Assay type: cell-based, human
- stated_conditions: SK-BR-3 cells, 24 h treatment; five concentrations, each in triplicate; read-out: IC50 (μM), suppression of aromatase activity in SK-BR-3 breast cancer cells
value_type: IC50 (µM)

1) CS(=O)(=O)Nc1ccc([N+](=O)[O-])cc1OC1CCCC1 | 0.87
2) CCCCCCCCCOc1cc([N+](=O)[O-])ccc1NS(C)(=O)=O | 0.91
3) CCC(CC)Oc1cc([N+](=O)[O-])ccc1N(C)S(C)(=O)=O | 0.23
4) CCCCCCOc1cc([N+](=O)[O-])ccc1N(C)S(C)(=O)=O | 4.49

* * *

Collected inhibition at 15 µM values appear next to each entry.
- tested_target: aromatase activity in JAR choriocarcinoma placental cells (Homo sapiens)
- Construct: JAR choriocarcinoma placental cells (which produce aromatase expression from promoter I.1 mediated by protein kinase C); host or cells: JAR
- Sequence (P11511 whole entry): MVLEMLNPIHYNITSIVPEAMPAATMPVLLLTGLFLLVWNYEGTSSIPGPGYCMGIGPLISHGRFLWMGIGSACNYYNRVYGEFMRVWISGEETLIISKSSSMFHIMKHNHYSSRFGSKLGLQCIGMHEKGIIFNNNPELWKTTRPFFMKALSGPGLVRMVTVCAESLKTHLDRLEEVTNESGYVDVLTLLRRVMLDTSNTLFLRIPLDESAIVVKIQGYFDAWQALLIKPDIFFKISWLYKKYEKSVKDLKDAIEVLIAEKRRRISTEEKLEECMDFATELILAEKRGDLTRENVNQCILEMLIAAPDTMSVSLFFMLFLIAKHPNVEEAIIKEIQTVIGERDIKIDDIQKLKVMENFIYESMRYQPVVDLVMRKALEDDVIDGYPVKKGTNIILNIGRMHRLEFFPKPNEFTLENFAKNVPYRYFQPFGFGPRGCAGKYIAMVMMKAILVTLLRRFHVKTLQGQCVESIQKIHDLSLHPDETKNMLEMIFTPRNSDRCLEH
- assay_info: Tritiated water-release assay in JAR cells
- Type: cell-based
- stated_conditions: 24 h, 15 μM (FIG. 11), read-out: decrease of aromatase activity in JAR cells
value_type: inhibition at 15 µM

1. CN(c1ccc([N+](=O)[O-])cc1OCc1ccc(F)cc1)S(C)(=O)=O [Compound 33c] | < 50%
2. CS(=O)(=O)Nc1ccc([N+](=O)[O-])cc1OCc1cccc2ccccc12 [Compound 38b] | < 50%
3. CN(c1ccc([N+](=O)[O-])cc1OCc1ccc2ccccc2c1)S(C)(=O)=O [Compound 28c] | < 50%
4. CN(c1ccc([N+](=O)[O-])cc1OCc1cccc2ccccc12)S(C)(=O)=O [Compound 38c] | < 50%
5. CN(c1ccc([N+](=O)[O-])cc1OCc1ccccc1)S(C)(=O)=O [Compound 26f] | < 50%
6. Cc1ccc(COc2cc([N+](=O)[O-])ccc2N(C)S(C)(=O)=O)cc1 [Compound 30c] | < 50%
7. CN(c1ccc([N+](=O)[O-])cc1OCc1ccccc1-c1ccccc1)S(C)(=O)=O [Compound 29c] | < 50%
8. CN(c1ccc([N+](=O)[O-])cc1OCc1ccc([N+](=O)[O-])cc1)S(C)(=O)=O [Compound 27c] | < 50%

* * *

Collected melting point values appear next to each entry.
value_type: melting point

1. CC(C)Oc1cc([N+](=O)[O-])ccc1NS(C)(=O)=O | 128 to 131 °C
2. CCCCCCOc1cc([N+](=O)[O-])ccc1NS(C)(=O)=O | 74 to 76 °C
3. CCC(CC)Oc1cc([N+](=O)[O-])ccc1N(C)S(C)(=O)=O | 89 to 90 °C

* * *

Collected melting point values appear next to each entry.
value_type: melting point

1. CN(c1ccc([N+](=O)[O-])cc1OCc1ccccc1-c1ccccc1)S(C)(=O)=O [Compound 29c] | 128 to 129 °C
2. CCCCCCOc1cc([N+](=O)[O-])ccc1N(C)S(C)(=O)=O [Compound 24] | 44 to 46 °C
3. CN(c1ccc([N+](=O)[O-])cc1OCc1ccc2ccccc2c1)S(C)(=O)=O [Compound 28c] | 119 to 121 °C
4. CCCCCCCCCOc1cc([N+](=O)[O-])ccc1NS(C)(=O)=O [Compound 14] | 70 to 71 °C
5. Cc1ccc(COc2cc([N+](=O)[O-])ccc2N(C)S(C)(=O)=O)cc1 [Compound 30c] | 96 to 98 °C
6. COc1cc([N+](=O)[O-])ccc1N(C)S(C)(=O)=O [Compound 25] | 125 to 126 °C
7. CN(c1ccc([N+](=O)[O-])cc1OCc1cccc2ccccc12)S(C)(=O)=O [Compound 38c] | 163 to 165 °C
8. CN(c1ccc([N+](=O)[O-])cc1OC1CCCCC1)S(C)(=O)=O [Compound 17] | 129 to 132 °C
9. CS(=O)(=O)Nc1ccc([N+](=O)[O-])cc1OCc1cccc2ccccc12 [Compound 38b] | 193 to 195 °C
10. CCC(CC)Oc1cc([N+](=O)[O-])ccc1NS(C)(=O)=O [Compound 13] | 100 to 102 °C
11. CN(c1ccc([N+](=O)[O-])cc1OCc1ccc(F)cc1)S(C)(=O)=O [Compound 33c] | 168 to 169 °C
12. CCCCCCCCCOc1cc([N+](=O)[O-])ccc1N(C)S(C)(=O)=O [Compound 23] | 83 to 84 °C
13. CN(c1ccc([N+](=O)[O-])cc1OC1CCCC1)S(C)(=O)=O [Compound 21] | 102 to 104 °C
14. CS(=O)(=O)Nc1ccc([N+](=O)[O-])cc1OC1CCCC1 [Compound 12] | 139 to 140 °C
15. CCCOc1cc([N+](=O)[O-])ccc1N(C)S(C)(=O)=O [Compound 18] | 66 to 69 °C
16. CC(C)Oc1cc([N+](=O)[O-])ccc1N(C)S(C)(=O)=O [Compound 19] | 99 to 100 °C
17. CCCOc1cc([N+](=O)[O-])ccc1NS(C)(=O)=O [Compound 9] | 117 to 119 °C
18. COc1cc([N+](=O)[O-])ccc1NS(C)(=O)=O [Compound 16] | 128 to 130 °C
